The measured values listed here are drawn from PubChem BioAssay (NCI).

Test system: MDA-MB-231 breast
Experiment: NCI tumour cell line growth inhibition, 48 h
endpoint-name: GI50

Please give the measured GI50 for this molecule: CC/C(=C(/c1ccc(O)cc1)c1ccc(OCCNC)cc1)c1ccccc1
1.39 µM

Please give the measured GI50 for this molecule: CC[C@@H]1C(=O)N(C)c2cnc(Nc3ccc(C(=O)NC4CCN(C)CC4)cc3OC)nc2N1C1CCCC1
0.00552 µM

Please give the measured GI50 for this molecule: COc1cc(C2=NOC(c3cc(OC)c(OC)c(OC)c3)C2)ccc1OCCCCOc1cc2c(cc1OC)C(=O)N1CCC[C@H]1C=N2 (stereo partly drawn)
0.235 µM

Please give the measured GI50 for this molecule: C=C1C(=O)O[C@H]2[C@H]1CC/C(Cn1cc(-c3ccc(OC)cc3)nn1)=C\CC[C@@]1(C)O[C@@H]21
1.44 µM

Please give the measured GI50 for this molecule: COc1cc(C2NC(=O)c3ccccc3N2)ccc1OCCCCCOc1c(OC)cc(C2=NOC(c3cc(OC)c(OC)c(OC)c3)C2)cc1OC (stereo not drawn)
14.8 µM

Please give the measured GI50 for this molecule: CC[C@@]1(O)C(=O)OCc2c1cc1n(c2=O)Cc2c-1nc1cc3c(cc1c2CCl)OCO3
1.38 µM

Please give the measured GI50 for this molecule: COc1cc(C2=C(c3ccccc3)COC2=O)cc(OC)c1OC
3.2 µM

Please give the measured GI50 for this molecule: O=C1Nc2c(C(F)(F)F)cccc2[C@]1(c1ccc(O)cc1)c1ccc(OC(F)(F)F)cc1
13 µM

* * *

System: UACC-62 melanoma
Assay: NCI tumour cell line growth inhibition, 48 h; in the data active means GI50 below about 0.43 µM; inactive means the rest
The reply should be one of these categories: active, inactive

Solved cases (4 shown):
smiles-code: C=C1C(=O)O[C@H]2[C@H]1CC/C(COC(=O)c1ccc3ccccc3c1)=C\CC[C@@]1(C)O[C@@H]21
classification: inactive
//
smiles-code: C=C1C(=O)O[C@H]2[C@H]1CC/C(Cn1cc(-c3ccc(OC)cc3)nn1)=C\CC[C@@]1(C)O[C@@H]21
classification: inactive
//
smiles-code: N#Cc1c(-c2ccc(F)cc2)nc(N/N=C/c2c[nH]c3ccccc23)nc1N1CCOCC1
classification: inactive
//
smiles-code: O=C1Nc2c(C(F)(F)F)cccc2[C@]1(c1ccc(O)cc1)c1ccc(OC(F)(F)F)cc1
classification: inactive

Hi team, can someone confirm the assay call for CCN(CC)c1ccc(/C=C/c2ccc3cc(C)ccc3[n+]2CC)cc1 ?
active

* * *

compounds and their reported TGI
Test system: SK-OV-3 ovarian
Experiment: NCI tumour cell line growth inhibition, 48 h
Where a SMILES comes first, the peptide text is derived from it. The star is where a group is joined. Cbz = O=C(OCc1ccccc1)*; NHNH2 = NN*

compound: COC(=O)[C@]12CC[C@@H](C)[C@H](C)[C@@H]1C1=CC[C@@H]3[C@@]4(C)C/C(=N\O)[C@H](O)[C@@]5(C)COC(=C45)C[C@@]3(C)[C@]1(C)CC2
endpoint-name: TGI
data-value: 30.5 µM

Please give the measured TGI for this compound: CC(C)(C)C1CCC2(CC1)c1[nH]c3ccccc3c1C1(CCC(C(C)(C)C)CC1)c1[nH]c3ccccc3c12 (stereo not given)
> 100 µM

Please give the measured TGI for this compound: CC(=O)CNC(=O)OC(C)(C)C
> 100 µM

Please give the measured TGI for this compound: OC1(c2ccc(Cl)cc2)c2ccc3ccccc3c2C2=N[C@H]3CCCC[C@@H]3N21 (stereo not given in full)
65.3 µM

Please give the measured TGI for this compound: CCC(C)c1c(Cl)nc(Cl)nc1Cl (stereo not given)
> 100 µM

Please give the measured TGI for this compound: NC(N)=NS(=O)(=O)c1ccc(NC(=O)c2ccc3nc4ccccc4c(Nc4ccc(S(=O)(=O)N=C(N)N)cc4)c3c2)cc1
> 100 µM

Please give the measured TGI for this compound: COC(=O)CC(NC(=O)OCc1ccccc1)C(=O)NC(CC(=O)OC)C(=O)NC(CC(=O)OC)C(=O)NC(CC(=O)OC)C(=O)NC(CC(=O)OC)C(=O)NC(CC(=O)OC)C(=O)NN (stereo not given) (Cbz-D(OMe)D(OMe)D(OMe)D(OMe)D(OMe)D(OMe)-NHNH2; configuration not given here)
> 100 µM

Please give the measured TGI for this compound: O=c1c2ccccc2nc(Nc2cccc(Cl)c2)n1/N=C/C=C/c1ccccc1
> 100 µM

Please give the measured TGI for this compound: O=C1CCCCN1CCCCC#Cc1ccccc1C#Cc1ccc([N+](=O)[O-])cc1
6.47 µM

Please give the measured TGI for this compound: CCCCN=C(NC#N)NCCCC
> 100 µM
